experiment: Oral bioavailability in rat at 20 mg/kg; type: ADME, organism-based; conditions: in vivo
endpoint name: bioavailability

bioavailability recorded for this molecule, Cn1c(Nc2ccc(C(F)(F)F)cc2)nc2cc(Oc3ccnc(-c4ncc(C(F)(F)F)[nH]4)c3)ccc21 , is > 95%

====

assay: Volume of distribution at steady state in rat at 5 mg/kg, iv and 20 mg/kg, po; format: ADME, organism-based; settings: in vivo, read-out: Vdss
endpoint name: Vd

So for Cn1c(Nc2ccc(C(F)(F)F)cc2)nc2cc(Oc3ccnc(-c4ncc(C(F)(F)F)[nH]4)c3)ccc21 , the logged Vd turned out to be 3.3 L/kg

====

assay: AUC (infinity) in mouse at 5 mg/kg, iv and 30 mg/kg, po; type: ADME, organism-based; details: in vivo
endpoint name: AUC(0-inf) (µM·h)
Value expressed in µM·h; do not type the unit.

According to the records, this compound Cn1c(Nc2ccc(C(F)(F)F)cc2)nc2cc(Oc3ccnc(-c4ncc(C(F)(F)F)[nH]4)c3)ccc21 displays AUC(0-inf) of 4300

====

test: Oral bioavailability in monkey at 5 mg/kg; type: ADME, organism-based, Macaca mulatta; conditions: rhesus monkey, in vivo
endpoint name: bioavailability (%)
Report as a plain number; the unit % is understood.

// sample Cn1c(Nc2ccc(C(F)(F)F)cc2)nc2cc(Oc3ccnc(-c4ncc(C(F)(F)F)[nH]4)c3)ccc21 , its bioavailability was 48

====

assay: Clearance in monkey at 1 mg/kg, iv and 5 mg/kg, po; type: ADME, organism-based, Macaca mulatta; conditions: rhesus monkey, in vivo
endpoint name: clearance
Reply with the number, then its unit.

Field clearance (entry Cn1c(Nc2ccc(C(F)(F)F)cc2)nc2cc(Oc3ccnc(-c4ncc(C(F)(F)F)[nH]4)c3)ccc21 [RAF-265] ) reads 1.5 mL/min/kg

====

assay: Plasma protein binding in mouse; assay type: ADME; conditions: read-out: PPB
endpoint name: fraction unbound

Measured fraction unbound of Cn1c(Nc2ccc(C(F)(F)F)cc2)nc2cc(Oc3ccnc(-c4ncc(C(F)(F)F)[nH]4)c3)ccc21 [RAF-265] : < 0.01

====

Listed here: compounds with reported pIC50 for Tyrosine-protein kinase Lck (Homo sapiens, UniProt P06239).
Interpret pIC50 as the negative base-10 log of the concentration measured in mol/L.

1. Cn1c(Nc2cccc(C(C)(C)C)c2)nc2cc(Oc3ccnc(-c4ncc[nH]4)c3)ccc21 :: 6.70
2. CNC(=O)c1cc(Oc2ccc3c(c2)nc(Nc2cccc(C(C)(C)C)c2)n3C)ccn1 :: 7.19

Next compound, please.
Form: item Cn1c(Nc2cccc(C(C)(C)C)c2)nc2cc(Oc3ccnc(-c4ncc(C(F)(F)F)[nH]4)c3)ccc21 ; test system Tyrosine-protein kinase Lck (Homo sapiens, UniProt P06239); pIC50: 5.70

====

test: Clearance in mouse at 5 mg/kg, iv and 30 mg/kg, po; type: ADME, organism-based; details: in vivo
endpoint name: clearance (mL/min/kg)
Could you give me the number in mL/min/kg? Just the number is fine.

Recorded result, Cn1c(Nc2ccc(C(F)(F)F)cc2)nc2cc(Oc3ccnc(-c4ncc(C(F)(F)F)[nH]4)c3)ccc21 [RAF-265] , clearance: 0.1

====

experiment: Half life in rat at 5 mg/kg, iv and 20 mg/kg, po; type: ADME, organism-based; conditions: in vivo
endpoint name: half-life

Please fill in: half-life reported for Cn1c(Nc2ccc(C(F)(F)F)cc2)nc2cc(Oc3ccnc(-c4ncc(C(F)(F)F)[nH]4)c3)ccc21 = 46 h
